System: Bacillus subtilis
Test: Bactericidal activity against Bacillus subtilis incubated for 24 hrs followed by replating on sterile nutrient broth and incubated for 24 hrs by broth dilution test
Type: functional
MBC listing for selected molecules.
measure: MBC (µg/mL)

* O=C(NS(=O)(=O)/C=C/c1ccc([N+](=O)[O-])cc1)c1cccs1 | 50
* O=C(NS(=O)(=O)c1c(-c2ccccc2)nn(-c2ccccc2)c1-c1ccc([N+](=O)[O-])cc1)c1cccs1 | 12.5
* O=C(NS(=O)(=O)c1c(-c2ccccc2)noc1-c1ccc([N+](=O)[O-])cc1)c1cccs1 | 12.5
* O=C(NS(=O)(=O)/C=C/c1ccc([N+](=O)[O-])cc1)c1ccc(Cl)s1 | 12.5

Source listed as ChEMBL document CHEMBL4251595.
